Tested on: Bacillus subtilis
EXPERIMENT_DESCRIPTION: Growth inhibition of Bacillus subtilis NCIM 2079 at 10 ug/ml measured after 12 hrs relative to control
Assay type: functional
EXPERIMENTAL_CONDITIONS: NCIM 2079, 12 h, read-out: GI
PROPERTY_LABEL: inhibition of growth at 10 µg/mL (%)
Give the quantity in %, number only.

Here is how some molecules turned out for inhibition of growth at 10 µg/mL.
Query: Entry under review: "O=C(O)CCN1C(=O)/C(=C/c2cc3cc(F)ccc3nc2Cl)SC1=S" . Reported inhibition of growth at 10 µg/mL?
Reply: -4.74

Query: Entry under review: "Cc1cccc2cc(/C=C3\SC(=S)N(CC(=O)O)C3=O)c(Cl)nc12" . Reported inhibition of growth at 10 µg/mL?
Reply: -19.6

Query: Entry under review: "CCOc1ccc2nc(Cl)c(/C=C3\SC(=S)N(CCC(=O)O)C3=O)cc2c1" . Reported inhibition of growth at 10 µg/mL?
Reply: -8.28

Continuing:
Query: Entry under review: "O=C1NC(=S)S/C1=C\c1cc2cc(Cl)ccc2nc1Cl" . Reported inhibition of growth at 10 µg/mL?
Reply: 92.5

----------
Tested on: Mycobacterium tuberculosis
EXPERIMENT_DESCRIPTION: Growth inhibition of Mycobacterium bovis BCG ATCC 35743 at dormant stage at 10 ug/ml measured after 12 days by nitrate reductase dye based two fold dilution method relative to control
Assay type: functional
EXPERIMENTAL_CONDITIONS: BCG str. ATCC 35743, 288 h, read-out: GI
PROPERTY_LABEL: inhibition of growth at 10 µg/mL
Param answer (str): number followed by unit.

Here is how some molecules turned out for inhibition of growth at 10 µg/mL.
Query: Please tell me: inhibition of growth at 10 µg/mL of "CCOc1ccc2nc(Cl)c(/C=C3\SC(=S)NC3=O)cc2c1" , system Mycobacterium tuberculosis?
Reply: 93.5%

Query: Please tell me: inhibition of growth at 10 µg/mL of "O=C1NC(=S)S/C1=C\c1cc2ccccc2nc1Cl" , system Mycobacterium tuberculosis?
Reply: -22.1%

Continuing:
Query: Please tell me: inhibition of growth at 10 µg/mL of "COc1ccc2cc(/C=C3\SC(=S)NC3=O)c(Cl)nc2c1" , system Mycobacterium tuberculosis?
Reply: 27.9%

Query: Please tell me: inhibition of growth at 10 µg/mL of "O=C(O)CN1C(=O)/C(=C/c2cc3cc(F)ccc3nc2Cl)SC1=S" , system Mycobacterium tuberculosis?
Reply: 43.1%

Query: Please tell me: inhibition of growth at 10 µg/mL of "Cc1cccc2cc(/C=C3\SC(=S)N(CCC(=O)O)C3=O)c(Cl)nc12" , system Mycobacterium tuberculosis?
Reply: 27.9%

Query: Please tell me: inhibition of growth at 10 µg/mL of "Cc1ccc2nc(Cl)c(/C=C3\SC(=S)N(CC(=O)O)C3=O)cc2c1" , system Mycobacterium tuberculosis?
Reply: 13.5%

Query: Please tell me: inhibition of growth at 10 µg/mL of "COc1ccc2cc(/C=C3\SC(=S)N(CC(=O)O)C3=O)c(Cl)nc2c1" , system Mycobacterium tuberculosis?
Reply: 33%

----------
Test system: Mycobacterium tuberculosis
EXPERIMENT_DESCRIPTION: Growth inhibition of Mycobacterium bovis BCG ATCC 35743 at dormant stage at 10 ug/ml measured after 12 days by nitrate reductase dye based two fold dilution method relative to control
Assay type: functional
EXPERIMENTAL_CONDITIONS: BCG str. ATCC 35743, 288 h, read-out: GI
The reader will find reported inhibition of growth at 10 µg/mL values listed item by item below.
Give the quantity in %, number only.

Here is how some molecules turned out for inhibition of growth at 10 µg/mL.
Query: Entry under review: "Cc1ccc2nc(Cl)c(/C=C3\SC(=S)N(CCC(=O)O)C3=O)cc2c1" . Reported inhibition of growth at 10 µg/mL?
Reply: -7.25

Query: Entry under review: "COc1ccc2nc(Cl)c(/C=C3\SC(=S)N(CCC(=O)O)C3=O)cc2c1" . Reported inhibition of growth at 10 µg/mL?
Reply: 27.2

Query: Entry under review: "O=C1NC(=S)S/C1=C\c1cc2cc(Cl)ccc2nc1Cl" . Reported inhibition of growth at 10 µg/mL?
Reply: 99.6

Query: Entry under review: "O=C(O)CN1C(=O)/C(=C/c2cc3cc(Cl)ccc3nc2Cl)SC1=S" . Reported inhibition of growth at 10 µg/mL?
Reply: 2.07

Query: Entry under review: "COc1ccc2nc(Cl)c(/C=C3\SC(=S)N(CC(=O)O)C3=O)cc2c1" . Reported inhibition of growth at 10 µg/mL?
Reply: 27.3

Continuing:
Query: Entry under review: "Cc1cccc2cc(/C=C3\SC(=S)N(CC(=O)O)C3=O)c(Cl)nc12" . Reported inhibition of growth at 10 µg/mL?
Reply: 31.6

Query: Entry under review: "COc1ccc2nc(Cl)c(/C=C3\SC(=S)NC3=O)cc2c1" . Reported inhibition of growth at 10 µg/mL?
Reply: -14

Query: Entry under review: "Cc1ccc2cc(/C=C3\SC(=S)N(CCC(=O)O)C3=O)c(Cl)nc2c1" . Reported inhibition of growth at 10 µg/mL?
Reply: 7.51

Query: Entry under review: "O=C(O)CCN1C(=O)/C(=C/c2cc3cc(Cl)ccc3nc2Cl)SC1=S" . Reported inhibition of growth at 10 µg/mL?
Reply: 25.7

Query: Entry under review: "COc1ccc2cc(/C=C3\SC(=S)N(CCC(=O)O)C3=O)c(Cl)nc2c1" . Reported inhibition of growth at 10 µg/mL?
Reply: 16.9

Query: Entry under review: "Cc1ccc2cc(/C=C3\SC(=S)N(CC(=O)O)C3=O)c(Cl)nc2c1" . Reported inhibition of growth at 10 µg/mL?
Reply: 22.4

Query: Entry under review: "CCOc1ccc2nc(Cl)c(/C=C3\SC(=S)N(CC(=O)O)C3=O)cc2c1" . Reported inhibition of growth at 10 µg/mL?
Reply: 24.8

Query: Entry under review: "Cc1ccc2nc(Cl)c(/C=C3\SC(=S)NC3=O)cc2c1" . Reported inhibition of growth at 10 µg/mL?
Reply: -18.4

Query: Entry under review: "O=C(O)CN1C(=O)/C(=C/c2cc3ccccc3nc2Cl)SC1=S" . Reported inhibition of growth at 10 µg/mL?
Reply: 32.9

Query: Entry under review: "CCOc1ccc2nc(Cl)c(/C=C3\SC(=S)N(CCC(=O)O)C3=O)cc2c1" . Reported inhibition of growth at 10 µg/mL?
Reply: 33
